target: human recombinant histamine H1 receptor (Homo sapiens, UniProt P35367); construct: expressed in transfected cells; host or cells: CHO cells; assay: Histamine H1 radioligand binding ([3H]Pyrilamine); conditions: percent inhibition of specific binding; screened at 1 μM; read-out: Inhibition of ligand binding, Hist. H1
Sequence (P35367 whole entry): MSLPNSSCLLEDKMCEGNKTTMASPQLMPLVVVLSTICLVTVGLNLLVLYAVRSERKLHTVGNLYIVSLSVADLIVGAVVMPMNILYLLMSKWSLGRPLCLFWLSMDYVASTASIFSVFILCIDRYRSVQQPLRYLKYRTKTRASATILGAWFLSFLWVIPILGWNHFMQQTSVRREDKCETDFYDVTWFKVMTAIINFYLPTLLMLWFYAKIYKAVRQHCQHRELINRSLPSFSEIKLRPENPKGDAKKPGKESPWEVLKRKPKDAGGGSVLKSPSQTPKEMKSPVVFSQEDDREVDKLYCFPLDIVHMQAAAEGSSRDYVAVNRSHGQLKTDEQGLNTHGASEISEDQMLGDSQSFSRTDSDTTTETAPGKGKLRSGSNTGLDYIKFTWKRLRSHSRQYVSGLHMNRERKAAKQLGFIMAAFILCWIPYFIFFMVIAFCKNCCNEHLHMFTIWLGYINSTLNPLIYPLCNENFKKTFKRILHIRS
Consider the following compounds and their measured inhibition at 1 µM readings.
Please state the value followed by its unit.

Completed entries (count: 4):
1. COc1ccc(CCn2c3c(c4cc(Cl)ccc42)CN(C)CC3)cc1F    99%
2. Cc1ccc2c(c1)c1c(n2CC(=O)N2CCCC2)CCN(C)C1    64%
3. CN1CCc2c(c3cc(Cl)ccc3n2CCc2ccccn2)C1    80%
4. CN1CCc2c(c3cccc(Cl)c3n2CCc2ccccc2)C1    97%

Entry CN1CCc2c(c3cc(Cl)ccc3n2CC(=O)N2CCNCC2)C1 , tested on human recombinant histamine H1 receptor (Homo sapiens, UniProt P35367), has a reported inhibition at 1 µM of 15%

* * *

target: human recombinant serotonin (5-Hydroxytryptamine) 5-HT6 receptor (Homo sapiens, UniProt P50406); construct: expressed in transfected cells; host or cells: human HeLa cells; assay: Serotonin 5-HT6 radioligand binding ([3H]LSD); parameters: concentration or dose not given beside the values; conditions: percent inhibition of specific binding
Sequence (P50406 whole entry): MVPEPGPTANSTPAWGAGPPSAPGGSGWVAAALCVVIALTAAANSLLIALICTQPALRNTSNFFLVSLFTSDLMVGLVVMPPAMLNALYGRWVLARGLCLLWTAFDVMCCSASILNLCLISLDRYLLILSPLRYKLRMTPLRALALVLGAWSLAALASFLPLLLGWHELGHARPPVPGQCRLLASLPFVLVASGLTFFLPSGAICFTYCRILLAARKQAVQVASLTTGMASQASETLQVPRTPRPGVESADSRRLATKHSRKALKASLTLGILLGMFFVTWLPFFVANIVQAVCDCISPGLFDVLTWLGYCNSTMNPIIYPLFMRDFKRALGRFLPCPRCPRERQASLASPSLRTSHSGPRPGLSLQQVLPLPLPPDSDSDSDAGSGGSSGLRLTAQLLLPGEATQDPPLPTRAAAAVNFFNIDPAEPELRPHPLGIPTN
Each entry gets 0.0 if its Inhibition of ligand binding, Ser. 5-HT6 stays under 20%, and 1.0 if its Inhibition of ligand binding, Ser. 5-HT6 is 20% or above.

Some entries whose results are on file:
1. Cc1ccc2c(c1)c1c(n2CC(=O)N2CCCC(C)C2)CCN(C)C1 (stereo not drawn)    0.0
2. CCOc1ccc(CCn2c3c(c4cc(C)ccc42)CN(C)CC3)cc1    1.0

Evaluate Cc1ccc2c(n1)c1c(n2CCc2ccc(C(F)(F)F)nc2)CCN(C)C1 : Inhibition of ligand binding, Ser. 5-HT6 at minimum 20%? 0.0

Would you say CN1CCc2c(c3c(Cl)cccc3n2CCC2CCCCC2)C1 shows Inhibition of ligand binding, Ser. 5-HT6 at minimum 20%? 1.0

Does the compound Cc1ccc2c(c1)c1c(n2CCc2ccc(F)cc2)CCN(C)C1 have recorded Inhibition of ligand binding, Ser. 5-HT6 that is 20% or more? 1.0

* * *

target: human recombinant serotonin (5-Hydroxytryptamine) 5-HT2A receptor (Homo sapiens); construct: expressed in transfected cells; host or cells: CHO-K1 cells; assay: Serotonin 5-HT2A radioligand binding ([3H]Ketanserin); conditions: percent inhibition of specific binding
Sequence (P28223 whole entry): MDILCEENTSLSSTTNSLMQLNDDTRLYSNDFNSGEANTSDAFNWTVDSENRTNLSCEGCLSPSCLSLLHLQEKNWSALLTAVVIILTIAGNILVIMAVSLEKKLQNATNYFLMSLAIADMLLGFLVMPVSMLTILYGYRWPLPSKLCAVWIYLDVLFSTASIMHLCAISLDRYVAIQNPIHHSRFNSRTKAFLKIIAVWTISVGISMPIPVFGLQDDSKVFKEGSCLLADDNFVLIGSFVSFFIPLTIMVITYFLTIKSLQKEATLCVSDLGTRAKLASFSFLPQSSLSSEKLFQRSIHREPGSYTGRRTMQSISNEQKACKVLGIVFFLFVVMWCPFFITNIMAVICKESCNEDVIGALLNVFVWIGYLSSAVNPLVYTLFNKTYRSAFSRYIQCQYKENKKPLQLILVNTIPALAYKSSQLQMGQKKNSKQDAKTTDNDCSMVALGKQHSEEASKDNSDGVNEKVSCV
Reported Inhibition of ligand binding, Ser. 5-HT2A values for a set of compounds
Your answer should be a plain number; it is taken to be in %.

1) Cc1cccc2c3c(n(CCc4ccc(C(F)(F)F)nc4)c12)CCN(C)C3    88
2) Cc1ccc2c(c1)c1c(n2CCc2ccc(C)nc2)CCN(C)C1 [Dimebon, dimebon, reference compound]    82
3) CN1CCc2c(c3cc(Cl)ccc3n2CCN2CCOCC2)C1    84
4) Cc1ccc2c(c1)c1c(n2CC(=O)N2Cc3ccccc3C2)CCN(C)C1    50
5) CCc1ccc2c(c1)c1c(n2CCc2cnc(C)nc2)CCN(C)C1    27
6) Cc1ccc2c(c1)c1c(n2CCc2ccccc2)CCN(C)C1    98
7) CN1CCc2c(c3cc(I)ccc3n2CCc2ccccc2F)C1    90
8) Cc1ccc2c(c1)c1c(n2CCc2ccc(CO)nc2)CCN(C)C1    73
9) CCN1CCc2c(c3cc(C)ccc3n2Cc2ccc(C)nc2)C1    14
10) Cc1ccc(CCn2c3c(c4cc(C(C)C)ccc42)CN(C)CC3)cn1    53

compound COc1ccc(CCn2c3c(c4cc(Cl)ccc42)CN(C)CC3)cc1 , Inhibition of ligand binding, Ser. 5-HT2A observed: 96

response.value for Cc1ccc2c(c1)c1c(n2CCc2ccc(Cl)cc2)CCN(C)C1 (field: Inhibition of ligand binding, Ser. 5-HT2A) = 96

For Cc1ccc2c(c1)c1c(n2CCc2ccc(C)nc2)CCN(C2CC2)C1 the compound record lists Inhibition of ligand binding, Ser. 5-HT2A as 0

The reported value for Cc1cnc(CCn2c3c(c4cc(Cl)ccc42)CN(C)CC3)cn1 in terms of Inhibition of ligand binding, Ser. 5-HT2A is 75

Looking up CN1CCc2c(c3ccccc3n2CCc2ccccn2)C1 , I found its Inhibition of ligand binding, Ser. 5-HT2A recorded as 70

Entry Cc1cnc(CCn2c3c(c4cc(C(C)C)ccc42)CN(C)CC3)cn1 , Inhibition of ligand binding, Ser. 5-HT2A reported as 10

Input CN1CCc2c(c3cc(Cl)ccc3n2CCc2cncnc2)C1 . Output Inhibition of ligand binding, Ser. 5-HT2A: 52

Inhibition of ligand binding, Ser. 5-HT2A reported for this compound Cc1ccc2c(c1)c1c(n2CC(=O)N2CCOCC2)CCN(C)C1 : 14

For reference, reported Inhibition of ligand binding, Ser. 5-HT2A for OC1CCC(N2CCc3c(c4cc(Cl)ccc4n3CCc3ccc(C(F)(F)F)nc3)C2)C1 (stereo not shown) stands at 1
